Hey, just so you know, these numbers are from patent US6288091A.

molecular target: HSV-1 helicase-primase (Human herpesvirus 1, UniProt P10189+P10236); construct: made in house; host or cells: Sf21 insect cells triply infected with recombinant baculoviruses (UL5, UL8, UL52); assay: HSV-1 DNA-dependent ATPase assay (inhibition of HSV-1 helicase-primase); type: biochemical; conditions: Group 1 Table 1 entries
Sequence (P10192 whole entry): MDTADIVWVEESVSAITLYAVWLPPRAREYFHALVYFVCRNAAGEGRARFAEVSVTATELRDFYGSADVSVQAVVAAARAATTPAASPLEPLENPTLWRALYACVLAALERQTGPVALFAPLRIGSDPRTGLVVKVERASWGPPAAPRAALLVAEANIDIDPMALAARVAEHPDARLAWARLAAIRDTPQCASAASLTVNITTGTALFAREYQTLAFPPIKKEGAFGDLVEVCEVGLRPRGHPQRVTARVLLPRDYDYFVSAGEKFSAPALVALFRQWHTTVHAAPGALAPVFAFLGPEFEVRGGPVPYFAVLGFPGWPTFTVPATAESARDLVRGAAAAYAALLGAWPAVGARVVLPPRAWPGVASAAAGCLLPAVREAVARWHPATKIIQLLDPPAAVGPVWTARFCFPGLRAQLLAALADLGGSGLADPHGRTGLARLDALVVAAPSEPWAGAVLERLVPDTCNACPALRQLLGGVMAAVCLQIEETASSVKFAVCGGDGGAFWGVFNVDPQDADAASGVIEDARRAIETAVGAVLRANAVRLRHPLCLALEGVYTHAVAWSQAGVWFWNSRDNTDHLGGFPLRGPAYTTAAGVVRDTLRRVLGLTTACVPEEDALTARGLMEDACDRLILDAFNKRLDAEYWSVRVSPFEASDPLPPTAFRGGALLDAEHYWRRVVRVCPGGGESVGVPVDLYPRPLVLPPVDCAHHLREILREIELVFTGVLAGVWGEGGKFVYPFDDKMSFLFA
Sequence (P10236 whole entry): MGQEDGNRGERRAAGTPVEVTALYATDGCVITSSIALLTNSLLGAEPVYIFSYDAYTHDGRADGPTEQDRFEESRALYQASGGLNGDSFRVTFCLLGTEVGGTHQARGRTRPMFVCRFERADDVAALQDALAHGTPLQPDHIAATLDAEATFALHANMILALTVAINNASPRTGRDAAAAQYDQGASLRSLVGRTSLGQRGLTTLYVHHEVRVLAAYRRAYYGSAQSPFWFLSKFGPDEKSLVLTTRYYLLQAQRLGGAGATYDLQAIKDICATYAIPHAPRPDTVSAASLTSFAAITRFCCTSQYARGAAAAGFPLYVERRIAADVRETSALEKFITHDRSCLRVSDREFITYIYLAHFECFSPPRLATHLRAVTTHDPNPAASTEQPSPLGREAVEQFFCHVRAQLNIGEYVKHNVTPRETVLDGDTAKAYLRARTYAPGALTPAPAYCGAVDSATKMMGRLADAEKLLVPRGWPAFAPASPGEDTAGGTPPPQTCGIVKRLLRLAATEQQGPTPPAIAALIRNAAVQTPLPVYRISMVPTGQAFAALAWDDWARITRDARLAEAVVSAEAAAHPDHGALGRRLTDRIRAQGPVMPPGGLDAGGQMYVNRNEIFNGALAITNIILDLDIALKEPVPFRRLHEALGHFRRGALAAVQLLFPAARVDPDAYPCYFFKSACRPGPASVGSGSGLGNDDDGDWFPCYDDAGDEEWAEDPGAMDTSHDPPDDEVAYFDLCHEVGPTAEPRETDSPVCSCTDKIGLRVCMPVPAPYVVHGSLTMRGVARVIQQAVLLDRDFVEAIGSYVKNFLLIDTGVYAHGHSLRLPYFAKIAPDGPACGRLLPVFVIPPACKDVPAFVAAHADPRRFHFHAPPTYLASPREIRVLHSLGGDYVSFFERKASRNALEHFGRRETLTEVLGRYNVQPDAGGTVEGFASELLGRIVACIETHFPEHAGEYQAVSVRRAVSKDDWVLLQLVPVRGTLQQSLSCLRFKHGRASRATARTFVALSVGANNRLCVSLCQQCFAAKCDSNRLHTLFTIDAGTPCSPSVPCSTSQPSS
Sequence (P10189 whole entry): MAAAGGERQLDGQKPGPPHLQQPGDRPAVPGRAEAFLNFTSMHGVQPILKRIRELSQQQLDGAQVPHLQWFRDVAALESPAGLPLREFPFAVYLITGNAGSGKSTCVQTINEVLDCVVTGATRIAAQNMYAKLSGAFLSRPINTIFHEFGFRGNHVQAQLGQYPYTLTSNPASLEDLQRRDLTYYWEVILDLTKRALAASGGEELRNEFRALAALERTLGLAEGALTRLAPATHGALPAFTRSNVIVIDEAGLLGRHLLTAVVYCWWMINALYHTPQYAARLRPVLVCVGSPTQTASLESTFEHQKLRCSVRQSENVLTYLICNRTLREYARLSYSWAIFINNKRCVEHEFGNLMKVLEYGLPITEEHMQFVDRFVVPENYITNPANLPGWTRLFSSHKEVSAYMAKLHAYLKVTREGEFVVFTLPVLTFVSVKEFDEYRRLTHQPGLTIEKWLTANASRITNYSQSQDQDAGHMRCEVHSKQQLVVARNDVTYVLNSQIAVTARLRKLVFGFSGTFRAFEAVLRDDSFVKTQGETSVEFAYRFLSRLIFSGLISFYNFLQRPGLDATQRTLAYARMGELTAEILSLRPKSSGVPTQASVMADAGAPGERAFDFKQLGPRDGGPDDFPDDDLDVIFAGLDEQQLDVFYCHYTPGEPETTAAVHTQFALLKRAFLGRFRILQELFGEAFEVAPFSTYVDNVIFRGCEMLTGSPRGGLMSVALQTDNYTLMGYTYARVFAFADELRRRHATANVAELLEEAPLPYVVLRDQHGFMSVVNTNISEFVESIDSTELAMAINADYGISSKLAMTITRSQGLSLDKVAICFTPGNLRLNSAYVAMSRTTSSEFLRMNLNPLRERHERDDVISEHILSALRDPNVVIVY
Recorded log10 IC50, one value per entry.
Log10 applied to IC50; unit prior to transform: nM.

> print(dat)
                                        mol                               system.name  recorded.number
1  C[C@@H](c1ccccc1)N(CC(=O)Nc1ccc(-c2csc(N)n2)cc1)C(=O)C1CCCCC1  HSV-1 helicase-primase (Human herpesvirus 1, UniProt P10189+P10236)             1.58
2  CCCC(CCC)N(CC(=O)Nc1ccc(-c2csc(N)n2)cc1)C(=O)C1CCCCC1  HSV-1 helicase-primase (Human herpesvirus 1, UniProt P10189+P10236)             2.79
3  COC(=O)N(CC(=O)Nc1ccc(-c2csc(N)n2)cc1)Cc1ccccc1  HSV-1 helicase-primase (Human herpesvirus 1, UniProt P10189+P10236)             3.45

Ask | Could you tell me which log10 IC50 is on file for Nc1nc(-c2ccc(NC(=O)CN(CC3CCCCC3)C(=O)C3CCCC3)cc2)cs1 ?
Reply | 2.89

Ask | Could you tell me which log10 IC50 is on file for Nc1nc(-c2ccc(NC(=O)CN(Cc3ccc(F)cc3)C(=O)c3ccncc3)cc2)cs1 ?
Reply | 2.56

Ask | Could you tell me which log10 IC50 is on file for Nc1nc(CC(=O)N(CC(=O)Nc2ccc(-c3csc(N)n3)cc2)Cc2ccccc2)cs1 ?
Reply | 2.83

Ask | Could you tell me which log10 IC50 is on file for Nc1nc(-c2ccc(NC(=O)CN(Cc3ccccc3)C(=O)c3ccncn3)cc2)cs1 ?
Reply | 3.15

Ask | Could you tell me which log10 IC50 is on file for CC(C)(C)OC(=O)N(CC(=O)Nc1ccc(-c2csc(N)n2)cc1)Cc1ccncc1 ?
Reply | 1.76
